Kindly supply the reported Fold Change Wk 3 Sel vs Dandruff Baseline values for the records listed here.
- Tested on: scalp of dandruff and non-dandruff subjects
- Assay Procedure: Metabolite expression profiling (LC/MS/MS, GC/MS/MS) of scalp D-Squame tape strip extracts: non-dandruff, dandruff baseline, dandruff after 3 weeks anti-dandruff shampoo
- Type: in vivo, human
- Protocol Conditions: metabolite level in scalp tape strips, standardized to soluble protein; dandruff subjects after 3 weeks 1% selenium sulfide shampoo vs own baseline
- Experimental: In an embodiment, the use of an adhesive device can be used to achieve such sampling. […] Following the sampling, an extraction and quantitation procedure is conducted. In an embodiment of the present invention, quantitation of small molecules from extracts of D-Squame® Tape Samples can be conducted via analysis by either LC/MS/MS or GC/MS/MS. […] The extracts are analyzed by GC/MS/MS and LC/MS/MS in positive and negative ion mode. […]
Marks after values point to notes of the source that are not given here.

Item: CCCC/C=C\CCCCCCCC(=O)O [Myristoleate (14:1n5), Myristoleate] Test system: scalp of dandruff and non-dandruff subjects Read-out: Fold Change Wk 3 Sel vs Dandruff Baseline Value: ?
0.53*** fold

Item: CCCCC/C=C\C/C=C\CCCCCCCCCC(=O)O [dihomo-linoleate (20:2n6), dihomo-linoleate] Test system: scalp of dandruff and non-dandruff subjects Read-out: Fold Change Wk 3 Sel vs Dandruff Baseline Value: ?
0.15* fold

Item: CCCCCCCCCCCCCCCCCCCCCC(=O)O [behenate (22:0), behenate] Test system: scalp of dandruff and non-dandruff subjects Read-out: Fold Change Wk 3 Sel vs Dandruff Baseline Value: ?
0.84 fold

Item: CCCCC/C=C\C/C=C\CCCCCCCCCCCC(=O)O [docosadienoate (22:2n6), docosadienoate] Test system: scalp of dandruff and non-dandruff subjects Read-out: Fold Change Wk 3 Sel vs Dandruff Baseline Value: ?
0.12* fold

Item: O=C(O)/C=C/C(=O)O [Fumarate] Test system: scalp of dandruff and non-dandruff subjects Read-out: Fold Change Wk 3 Sel vs Dandruff Baseline Value: ?
0.37*** fold

Item: O=C(O)C(O)Cc1ccc(O)cc1 (stereo not shown) [3-(4-hydroxyphenyl)lactate] Test system: scalp of dandruff and non-dandruff subjects Read-out: Fold Change Wk 3 Sel vs Dandruff Baseline Value: ?
0.44* fold

Item: NC(N)=O [Urea] Test system: scalp of dandruff and non-dandruff subjects Read-out: Fold Change Wk 3 Sel vs Dandruff Baseline Value: ?
2.81**** fold

Item: CC(C)CCCCCCCCCCCCCCCC(=O)O [17-methylstearate] Test system: scalp of dandruff and non-dandruff subjects Read-out: Fold Change Wk 3 Sel vs Dandruff Baseline Value: ?
0.21* fold

Item: CC(C)CCCCCCCCCCCCC(=O)O [isopalmitic acid] Test system: scalp of dandruff and non-dandruff subjects Read-out: Fold Change Wk 3 Sel vs Dandruff Baseline Value: ?
0.23* fold

Item: O=C(O)/C=C\c1cnc[nH]1 [cis-urocanate] Test system: scalp of dandruff and non-dandruff subjects Read-out: Fold Change Wk 3 Sel vs Dandruff Baseline Value: ?
1.22 fold

---

- Test system: scalp of dandruff and non-dandruff subjects
- Assay Procedure: Metabolite expression profiling (LC/MS/MS, GC/MS/MS) of scalp D-Squame tape strip extracts: non-dandruff, dandruff baseline, dandruff after 3 weeks anti-dandruff shampoo
- Type: in vivo, human
- Protocol Conditions: metabolite level in scalp tape strips, standardized to soluble protein; dandruff subjects after 3 weeks 1% zinc pyrithione shampoo vs own baseline
Marks after values point to notes of the source that are not given here.
Measured Parameter: Fold Change Wk 3 ZPT vs Dandruff Baseline

Which Fold Change Wk 3 ZPT vs Dandruff Baseline is reported for this compound? CCCCC/C=C\C/C=C\CCCCCCCCCC(=O)O [dihomo-linoleate (20:2n6), dihomo-linoleate]
0.3* fold

Which Fold Change Wk 3 ZPT vs Dandruff Baseline is reported for this compound? O=C(O)C(O)Cc1ccc(O)cc1 (stereo not shown) [3-(4-hydroxyphenyl)lactate]
0.7*** fold

Which Fold Change Wk 3 ZPT vs Dandruff Baseline is reported for this compound? `NC(N)=O`
4.13 fold

Which Fold Change Wk 3 ZPT vs Dandruff Baseline is reported for this compound? CCCC/C=C\CCCCCCCC(=O)O [Myristoleate (14:1n5), Myristoleate]
0.8*** fold
